Reference for the values: patent US20260297060A1

Target: BRAF V600E (Homo sapiens, UniProt P15056+Q96SW2, V600E)
Construct: knock-in of the HiBiT tag to the endogenous BRAF V600E locus; host or cells: A375.10 (A375 clonal line, CRISPR HiBiT knock-in at the endogenous BRAF V600E locus)
Sequence (P15056 whole entry V600E): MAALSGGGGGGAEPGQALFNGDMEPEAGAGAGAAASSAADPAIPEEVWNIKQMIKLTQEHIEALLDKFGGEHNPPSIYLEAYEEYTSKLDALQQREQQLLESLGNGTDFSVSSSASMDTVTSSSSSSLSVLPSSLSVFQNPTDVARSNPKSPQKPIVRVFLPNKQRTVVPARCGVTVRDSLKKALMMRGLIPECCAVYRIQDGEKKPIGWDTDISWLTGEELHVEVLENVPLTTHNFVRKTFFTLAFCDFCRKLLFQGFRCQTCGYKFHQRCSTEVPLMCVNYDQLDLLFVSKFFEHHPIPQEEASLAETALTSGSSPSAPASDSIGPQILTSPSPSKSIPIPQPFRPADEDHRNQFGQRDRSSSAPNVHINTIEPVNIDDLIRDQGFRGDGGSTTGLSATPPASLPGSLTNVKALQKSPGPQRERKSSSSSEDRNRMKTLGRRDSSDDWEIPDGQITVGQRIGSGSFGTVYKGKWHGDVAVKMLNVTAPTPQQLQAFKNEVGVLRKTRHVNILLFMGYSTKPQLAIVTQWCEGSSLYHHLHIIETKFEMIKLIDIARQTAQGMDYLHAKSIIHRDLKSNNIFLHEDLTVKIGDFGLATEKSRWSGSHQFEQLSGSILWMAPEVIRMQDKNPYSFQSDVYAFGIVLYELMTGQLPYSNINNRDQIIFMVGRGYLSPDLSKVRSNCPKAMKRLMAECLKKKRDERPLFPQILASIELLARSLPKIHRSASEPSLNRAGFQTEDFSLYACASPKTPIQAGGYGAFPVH
Sequence (Q96SW2 whole entry): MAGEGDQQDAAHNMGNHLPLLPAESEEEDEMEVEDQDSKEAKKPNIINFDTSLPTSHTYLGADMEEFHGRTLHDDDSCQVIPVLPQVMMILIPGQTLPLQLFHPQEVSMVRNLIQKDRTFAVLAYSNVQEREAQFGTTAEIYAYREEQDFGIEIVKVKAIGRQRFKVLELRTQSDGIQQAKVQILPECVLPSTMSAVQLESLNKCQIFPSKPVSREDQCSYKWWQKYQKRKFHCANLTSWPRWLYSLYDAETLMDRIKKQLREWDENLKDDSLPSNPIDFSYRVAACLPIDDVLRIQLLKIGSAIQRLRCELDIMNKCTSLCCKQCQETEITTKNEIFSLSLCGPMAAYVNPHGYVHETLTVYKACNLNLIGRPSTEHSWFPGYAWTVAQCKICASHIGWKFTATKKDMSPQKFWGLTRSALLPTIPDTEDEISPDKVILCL
Sequence (Q16531 whole entry partner): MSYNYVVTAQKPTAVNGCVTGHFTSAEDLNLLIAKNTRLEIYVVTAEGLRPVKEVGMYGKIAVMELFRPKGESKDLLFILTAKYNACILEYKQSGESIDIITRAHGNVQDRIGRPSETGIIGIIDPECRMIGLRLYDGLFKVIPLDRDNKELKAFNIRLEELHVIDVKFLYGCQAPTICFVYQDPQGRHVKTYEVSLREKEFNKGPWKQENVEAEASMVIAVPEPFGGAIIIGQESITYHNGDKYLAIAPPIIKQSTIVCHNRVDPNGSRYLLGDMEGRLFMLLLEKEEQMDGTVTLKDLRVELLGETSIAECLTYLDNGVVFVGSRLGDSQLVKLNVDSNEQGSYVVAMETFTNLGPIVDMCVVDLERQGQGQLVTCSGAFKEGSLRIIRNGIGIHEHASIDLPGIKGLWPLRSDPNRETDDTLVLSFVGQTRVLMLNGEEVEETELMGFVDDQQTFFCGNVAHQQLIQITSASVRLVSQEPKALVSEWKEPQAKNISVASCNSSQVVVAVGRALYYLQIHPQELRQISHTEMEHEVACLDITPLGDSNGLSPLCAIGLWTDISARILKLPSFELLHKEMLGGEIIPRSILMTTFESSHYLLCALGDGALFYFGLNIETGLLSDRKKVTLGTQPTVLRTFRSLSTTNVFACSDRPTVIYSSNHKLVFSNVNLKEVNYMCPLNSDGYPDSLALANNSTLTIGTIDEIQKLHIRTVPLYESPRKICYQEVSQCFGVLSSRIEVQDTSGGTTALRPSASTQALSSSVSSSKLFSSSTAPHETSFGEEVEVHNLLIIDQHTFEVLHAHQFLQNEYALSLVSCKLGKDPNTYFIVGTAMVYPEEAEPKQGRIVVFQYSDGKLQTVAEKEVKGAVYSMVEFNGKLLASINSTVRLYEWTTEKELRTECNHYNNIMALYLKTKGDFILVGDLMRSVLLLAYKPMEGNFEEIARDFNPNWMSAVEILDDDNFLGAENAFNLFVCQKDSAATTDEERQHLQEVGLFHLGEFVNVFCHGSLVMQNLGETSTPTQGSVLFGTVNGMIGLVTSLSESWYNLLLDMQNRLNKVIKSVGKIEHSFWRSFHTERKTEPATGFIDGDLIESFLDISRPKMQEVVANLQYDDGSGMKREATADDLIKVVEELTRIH
Test: BRAF V600E HiBiT Degradation Assay
Type: cell-based
Conditions: A375.10 cells, BRAF V600E, 2 hours; residual protein remaining; read-out: HiBiT-Degradation A375.10 BRAF 2 hours Emax

molecule	tested_system	Emax
CCN(C)S(=O)(=O)Nc1ccc(F)c(Oc2ccc3ncn(C4CC5(CCN(C6CCC(c7cc8c(cc7F)c(N7CCC(=O)NC7=O)nn8C)CC6)C5)C4)c(=O)c3c2)c1C#N (single isomer, unassigned) [Compound 206]	BRAF V600E (Homo sapiens, UniProt P15056+Q96SW2, V600E)	< 50%
CO[C@H]1CCN(S(=O)(=O)Nc2ccc(F)c(Oc3ccc4ncc(C5CC6(CCN(C7CCC(c8cc9c(cc8F)c(N8CCC(=O)NC8=O)nn9C)CC7)CC6)C5)nc4c3)c2C#N)C1 (single isomer, unassigned) [Compound 275]	BRAF V600E (Homo sapiens, UniProt P15056+Q96SW2, V600E)	50 to 90%
CC(C)S(=O)(=O)Nc1ccc(F)c(Oc2ccc3ncc(C4CC5(CCN(C6CCC(c7cc8c(cc7F)c(N7CCC(=O)NC7=O)nn8C)CC6)CC5)C4)nc3c2)c1C#N (single isomer, unassigned) [Compound 248]	BRAF V600E (Homo sapiens, UniProt P15056+Q96SW2, V600E)	< 50%
CCN(C)S(=O)(=O)Nc1ccc(F)c(Oc2ccc3ncn([C@H]4COC5(CCN(C6CCC(c7ccc(NC8CCC(=O)NC8=O)cc7F)CC6)CC5)C4)c(=O)c3c2)c1F (single isomer, unassigned) [Compound 78]	BRAF V600E (Homo sapiens, UniProt P15056+Q96SW2, V600E)	< 50%
CCN(C)S(=O)(=O)Nc1ccc(F)c(Oc2ccc3ncn([C@H]4COC5(CCN(C6CCC(c7ccc(N[C@@H]8CCC(=O)NC8=O)cc7F)CC6)CC5)C4)c(=O)c3c2)c1C#N (single isomer, unassigned) [Compound 4]	BRAF V600E (Homo sapiens, UniProt P15056+Q96SW2, V600E)	< 50%
CCN(C)S(=O)(=O)Nc1ccc(F)c(Oc2ccc3ncn(C4CC5(CCN(C6CCC(c7ccc(NC8CCC(=O)NC8=O)cc7F)CC6)CC5)C4)c(=O)c3c2)c1C#N (single isomer, unassigned) [Compound 6]	BRAF V600E (Homo sapiens, UniProt P15056+Q96SW2, V600E)	< 50%
CN(CCO)S(=O)(=O)Nc1ccc(F)c(Oc2ccc3ncn(C4CC5(CCN(C6CC7(C6)CN(c6cc8c(cc6F)c(N6CCC(=O)NC6=O)nn8C)C7)CC5)C4)c(=O)c3c2)c1F (stereo not drawn) [Compound 197]	BRAF V600E (Homo sapiens, UniProt P15056+Q96SW2, V600E)	50 to 90%
CCN(C)S(=O)(=O)Nc1ccc(F)c(Oc2ccc3ncn(C4CC5(CCN(C6CCC7(CC6)CN(c6cc8c(cc6F)c(N6CCC(=O)NC6=O)nn8C)C7)CC5)C4)c(=O)c3c2)c1C#N (stereo not drawn) [Compound 220]	BRAF V600E (Homo sapiens, UniProt P15056+Q96SW2, V600E)	50 to 90%
CCN(C)S(=O)(=O)Nc1ccc(F)c(Oc2ccc3ncn(C4CC5(CCN(C6CCC(c7cc8c(cc7F)c(N7CCC(=O)NC7=O)nn8C)CC6)CC5)C4)c(=O)c3c2)c1F (single isomer, unassigned) [Compound 178]	BRAF V600E (Homo sapiens, UniProt P15056+Q96SW2, V600E)	< 50%
